src = ChEMBL document CHEMBL1681676

# experimental-protocol: Oral bioavailability in Han Wistar rat at 2 mg/kg by LC-MS/MS analysis
# Assay type: ADME, organism-based
# assay-context: in vivo
reported-endpoint: bioavailability (%)
Reply numerically in %, unit not repeated.

For the compound shown here, Cc1noc(C)c1CCC1CCN(S(=O)(=O)C[C@](C)(C[C@H](C)c2ncc(F)cn2)N(O)C=O)CC1 , give the reported bioavailability.
3.5

====

# experimental-protocol: Inhibition of aggrecanase-mediated aggrecan degradation in IL-1-stimulated bovine nasal cartilage explant after 48 hrs by immunoblot method
# Assay type: tissue-based, Bos taurus
reported-endpoint: IC50 (nM)
Reply numerically in nM, unit not repeated.

For the compound shown here, Cc1noc(C)c1CCC1CCN(S(=O)(=O)C[C@](C)(C[C@H](C)c2ncc(F)cn2)N(O)C=O)CC1 , give the reported IC50.
310
